# System: Fibroblast
# EXPERIMENT_NOTES: Multiplex assay against human fibroblast
# Format: toxicity, cell-based
# STATED_CONDITIONS: 24 h, 10 µM, compound concentration 10 uM, replicate 1
Listed next: entries and their corresponding Population Tubulin-Different-Phenotype (%).
Just the number in %, nothing appended.

Worked examples, 5 molecules total:
>  <MOLECULE>
COc1ncc(-c2ccc3nccc(-c4ccnnc4)c3c2)cc1NS(=O)(=O)c1ccc(F)cc1F

>  <READOUT_VALUE>
80

$$$$
>  <MOLECULE>
OC1(c2ccc(Cl)cc2)CCN(Cc2c[nH]c3ccccc23)CC1

>  <READOUT_VALUE>
75

$$$$
>  <MOLECULE>
Cc1cc(C)cc(-c2cnc3cc(Cl)c(-c4cccc(O)c4)cc3c2OCCCN)c1

>  <READOUT_VALUE>
90

$$$$
>  <MOLECULE>
CNc1nc(NCc2ccc(NS(C)(=O)=O)cc2Cl)cc(-c2ccccn2)n1

>  <READOUT_VALUE>
77

$$$$
>  <MOLECULE>
COc1cc(-n2cnc3cc(-c4ccc(Cl)cc4)sc3c2=O)ccc1OCCN1CCCC1

>  <READOUT_VALUE>
93

$$$$

[in] Find the measured Population Tubulin-Different-Phenotype (%) of C=CC(=O)Nc1cc2c(Nc3ccc(F)c(Cl)c3)ncnc2cc1OCCCN1CCOCC1.Cl.Cl [CANERTINIB DIHYDROCHLORIDE] and report it.
[out] 11

[in] Write down Population Tubulin-Different-Phenotype (%) measured for item CC[C@H](C)C(=O)O[C@H]1C[C@@H](C)C=C2C=C[C@H](C)[C@H](CC[C@@H]3C[C@@H](O)CC(=O)O3)[C@H]21
[out] 28

[in] Provide one value: measured Population Tubulin-Different-Phenotype (%) of O=C1NCN(c2ccccc2)C12CCN(CCCOc1ccc(F)cc1)CC2 [SPIRAMIDE]
[out] 85

[in] // fetch Population Tubulin-Different-Phenotype (%) given entry CN1CCN(c2ccc(OC(F)(F)F)c(Nc3ncc4c(n3)-c3c(c(C(N)=O)nn3CCO)CC4)c2)CC1
[out] 66

[in] Identify measured Population Tubulin-Different-Phenotype (%) associated with Cn1cc(-c2[nH]c3cc(NC(=O)[C@H](N)C4CCCCC4)cc4c3c2C=NNC4=O)cn1
[out] 52

[in] Item CN(C)C(=O)N[C@H]1CC[C@H](CCN2CCN(c3cccc(Cl)c3Cl)CC2)CC1.Cl [CARIPRAZINE HYDROCHLORIDE] : provide Population Tubulin-Different-Phenotype (%)
[out] 82

[in] Look up Population Tubulin-Different-Phenotype (%) of CC(C)NCC(O)COc1ccc(CCOCC2CC2)cc1.Cl (stereo unspecified) [BETAXOLOL HYDROCHLORIDE] and report it.
[out] 64

---

# Tested on: U2OS
# EXPERIMENT_NOTES: Multiplex assay against U2OS
# Assay type: toxicity, cell-based
# STATED_CONDITIONS: human, 24 h, 10 µM, compound concentration 10 uM, replicate 1
Just a reminder that ties go to not met: only Population Apoptotic (%) strictly below 60% counts as met.

Answered cases to consult:
>  <COMPOUND>
Cn1cc(-c2[nH]c3cc(NC(=O)[C@H](N)C4CCCCC4)cc4c3c2C=NNC4=O)cn1

>  <CATEGORY_LABEL>
not met

$$$$
>  <COMPOUND>
Cc1[nH]c(/C=C2\C(=O)Nc3ccc(S(=O)(=O)N(C)c4cccc(Cl)c4)cc32)c(C)c1C(=O)N1CCN(C)CC1

>  <CATEGORY_LABEL>
not met

$$$$
>  <COMPOUND>
COc1cc(-n2cnc3cc(-c4ccc(Cl)cc4)sc3c2=O)ccc1OCCN1CCCC1

>  <CATEGORY_LABEL>
not met

$$$$
>  <COMPOUND>
CC(C)NCC(O)COc1ccc(CCOCC2CC2)cc1.Cl (centres undefined) [BETAXOLOL HYDROCHLORIDE]

>  <CATEGORY_LABEL>
met

$$$$

[in] Identify whether the compound Cc1nc(-c2cn3c(n2)-c2ccc(-c4cnn(C(C)(C)C(N)=O)c4)cc2OCC3)n(C(C)C)n1 records Population Apoptotic (%) below 60%.
[out] met

[in] Record COc1cccc([C@@H](C)NCCCc2ccccc2Cl)c1.Cl [TECALCET HYDROCHLORIDE] : is its Population Apoptotic (%) strictly below 60%?
[out] met

[in] Would you kindly verify if Population Apoptotic (%) of CN(C)C(=O)/C(C#N)=C/c1ccc(-c2nc3cnc4[nH]ccc4c3n2C2CCCCC2)o1 is strictly less than 60%?
[out] met

[in] Does Cc1nc(-c2ccc(-c3ccc(C(=O)N4CCc5cc6c(cc54)C4(CCN(C)CC4)CO6)cc3)c(C)c2)no1 have Population Apoptotic (%) strictly under 60%?
[out] not met

---

# System: HEK-293T
# EXPERIMENT_NOTES: Multiplex assay against HEK293T
# Format: toxicity, cell-based
# STATED_CONDITIONS: human, 12 h, 1 µM, compound concentration 1 uM, replicate 1
Think of 10% as a floor: if Population Fragmented Nuclei (%) stands on it or above, it is true (1); beneath it, false (0).

Example results:
>  <COMPOUND>
CC[C@H](C)C(=O)O[C@H]1C[C@@H](C)C=C2C=C[C@H](C)[C@H](CC[C@@H]3C[C@@H](O)CC(=O)O3)[C@H]21

>  <CATEGORY_LABEL>
true (1)

$$$$
>  <COMPOUND>
CN1CCN(CCOc2cc(OC3CCOCC3)c3c(Nc4c(Cl)ccc5c4OCO5)ncnc3c2)CC1

>  <CATEGORY_LABEL>
true (1)

$$$$
>  <COMPOUND>
CC(C)(O)CNc1ncc(-c2ccnc(Nc3ccnc(Cl)c3)n2)c(CC2CC2)n1

>  <CATEGORY_LABEL>
true (1)

$$$$
>  <COMPOUND>
CN(C)C(=O)/C(C#N)=C/c1ccc(-c2nc3cnc4[nH]ccc4c3n2C2CCCCC2)o1

>  <CATEGORY_LABEL>
false (0)

$$$$
>  <COMPOUND>
COc1cc(-n2cnc3cc(-c4ccc(Cl)cc4)sc3c2=O)ccc1OCCN1CCCC1

>  <CATEGORY_LABEL>
false (0)

$$$$
>  <COMPOUND>
CN1CCN(c2ccc(OC(F)(F)F)c(Nc3ncc4c(n3)-c3c(c(C(N)=O)nn3CCO)CC4)c2)CC1

>  <CATEGORY_LABEL>
true (1)

$$$$

[in] Would you say COc1cccc([C@@H](C)NCCCc2ccccc2Cl)c1.Cl [TECALCET HYDROCHLORIDE] shows Population Fragmented Nuclei (%) at minimum 10%?
[out] false (0)

[in] Would you say Cc1[nH]c(/C=C2\C(=O)Nc3ccc(S(=O)(=O)N(C)c4cccc(Cl)c4)cc32)c(C)c1C(=O)N1CCN(C)CC1 shows Population Fragmented Nuclei (%) at minimum 10%?
[out] false (0)

---

# Tested on: HEK-293T
# EXPERIMENT_NOTES: Multiplex assay against HEK293T
# Assay type: toxicity, cell-based
# STATED_CONDITIONS: human, 12 h, 1 µM, compound concentration 1 uM, replicate 1
OUTCOME_MEASURE: Population Healthy Nuclei (%)
Field: numeric (%). Do not append units.

Sample records with Population Healthy Nuclei (%):
>  <MOLECULE>
CN1CCCC(n2nc(Cc3ccc(Cl)cc3)c3ccccc3c2=O)CC1.Cl (stereo unspecified) [AZELASTINE HYDROCHLORIDE]

>  <Population Healthy Nuclei (%)>
42

$$$$
>  <MOLECULE>
C[C@@]1(C(=O)Nc2ccc(F)nc2)CCCN1c1nc(Nc2cc(C3CC3)n[nH]2)c2cccn2n1

>  <Population Healthy Nuclei (%)>
38

$$$$
>  <MOLECULE>
OC1(c2ccc(Cl)cc2)CCN(Cc2c[nH]c3ccccc23)CC1

>  <Population Healthy Nuclei (%)>
14

$$$$

[in] Return value of Population Healthy Nuclei (%) for input Cc1cc(C)cc(-c2cnc3cc(Cl)c(-c4cccc(O)c4)cc3c2OCCCN)c1 , no commentary.
[out] 40

[in] Recall and state the measured Population Healthy Nuclei (%) for Cc1[nH]c(/C=C2\C(=O)Nc3ccc(S(=O)(=O)N(C)c4cccc(Cl)c4)cc32)c(C)c1C(=O)N1CCN(C)CC1 .
[out] 47

[in] Tell me Population Healthy Nuclei (%) reported for Cn1cc(-c2[nH]c3cc(NC(=O)[C@H](N)C4CCCCC4)cc4c3c2C=NNC4=O)cn1
[out] 26

[in] Look up and state reported Population Healthy Nuclei (%) for COc1cccc([C@@H](C)NCCCc2ccccc2Cl)c1.Cl [TECALCET HYDROCHLORIDE]
[out] 46

[in] Supply reported Population Healthy Nuclei (%) belonging to this molecule: CC(C)NCC(O)COc1ccc(CCOCC2CC2)cc1.Cl (stereo unspecified) [BETAXOLOL HYDROCHLORIDE]
[out] 49

[in] Output measured Population Healthy Nuclei (%) for this item: CC[C@H](C)C(=O)O[C@H]1C[C@@H](C)C=C2C=C[C@H](C)[C@H](CC[C@@H]3C[C@@H](O)CC(=O)O3)[C@H]21
[out] 16

[in] Look up and state reported Population Healthy Nuclei (%) for Cc1nc(Nc2n[nH]c3c2CN(C(=O)N[C@H](CN(C)C)c2ccccc2)C3(C)C)c2sccc2n1
[out] 65

[in] Kindly indicate its recorded Population Healthy Nuclei (%). Item: CNc1nc(NCc2ccc(NS(C)(=O)=O)cc2Cl)cc(-c2ccccn2)n1
[out] 36

[in] Dear colleague, please send me the reported Population Healthy Nuclei (%) for NC(=O)Nc1cc(-c2cccc(F)c2)sc1C(=O)N[C@H]1CCCNC1 when you can.
[out] 54

[in] Could you please provide reported Population Healthy Nuclei (%) for CN(C)CC#Cc1ccc(OCCCc2sc(N3CCc4cccc(C(=O)Nc5nc6ccccc6s5)c4C3)nc2C(=O)O)c(F)c1 ? Thanks!
[out] 42
